Assign pIC50 to each entry below.
target: HEK293 cells expressing NR1/NR2B (Homo sapiens (Human), UniProt Q05586+Q13224); assay: NR2B NAM Assay (FDSS Ca2+ influx cell assay); conditions: NR2B NAM assay, class of inhibitory concentration; read-out: Activity Category
Sequence (Q13224 27-1484, other chains not shown): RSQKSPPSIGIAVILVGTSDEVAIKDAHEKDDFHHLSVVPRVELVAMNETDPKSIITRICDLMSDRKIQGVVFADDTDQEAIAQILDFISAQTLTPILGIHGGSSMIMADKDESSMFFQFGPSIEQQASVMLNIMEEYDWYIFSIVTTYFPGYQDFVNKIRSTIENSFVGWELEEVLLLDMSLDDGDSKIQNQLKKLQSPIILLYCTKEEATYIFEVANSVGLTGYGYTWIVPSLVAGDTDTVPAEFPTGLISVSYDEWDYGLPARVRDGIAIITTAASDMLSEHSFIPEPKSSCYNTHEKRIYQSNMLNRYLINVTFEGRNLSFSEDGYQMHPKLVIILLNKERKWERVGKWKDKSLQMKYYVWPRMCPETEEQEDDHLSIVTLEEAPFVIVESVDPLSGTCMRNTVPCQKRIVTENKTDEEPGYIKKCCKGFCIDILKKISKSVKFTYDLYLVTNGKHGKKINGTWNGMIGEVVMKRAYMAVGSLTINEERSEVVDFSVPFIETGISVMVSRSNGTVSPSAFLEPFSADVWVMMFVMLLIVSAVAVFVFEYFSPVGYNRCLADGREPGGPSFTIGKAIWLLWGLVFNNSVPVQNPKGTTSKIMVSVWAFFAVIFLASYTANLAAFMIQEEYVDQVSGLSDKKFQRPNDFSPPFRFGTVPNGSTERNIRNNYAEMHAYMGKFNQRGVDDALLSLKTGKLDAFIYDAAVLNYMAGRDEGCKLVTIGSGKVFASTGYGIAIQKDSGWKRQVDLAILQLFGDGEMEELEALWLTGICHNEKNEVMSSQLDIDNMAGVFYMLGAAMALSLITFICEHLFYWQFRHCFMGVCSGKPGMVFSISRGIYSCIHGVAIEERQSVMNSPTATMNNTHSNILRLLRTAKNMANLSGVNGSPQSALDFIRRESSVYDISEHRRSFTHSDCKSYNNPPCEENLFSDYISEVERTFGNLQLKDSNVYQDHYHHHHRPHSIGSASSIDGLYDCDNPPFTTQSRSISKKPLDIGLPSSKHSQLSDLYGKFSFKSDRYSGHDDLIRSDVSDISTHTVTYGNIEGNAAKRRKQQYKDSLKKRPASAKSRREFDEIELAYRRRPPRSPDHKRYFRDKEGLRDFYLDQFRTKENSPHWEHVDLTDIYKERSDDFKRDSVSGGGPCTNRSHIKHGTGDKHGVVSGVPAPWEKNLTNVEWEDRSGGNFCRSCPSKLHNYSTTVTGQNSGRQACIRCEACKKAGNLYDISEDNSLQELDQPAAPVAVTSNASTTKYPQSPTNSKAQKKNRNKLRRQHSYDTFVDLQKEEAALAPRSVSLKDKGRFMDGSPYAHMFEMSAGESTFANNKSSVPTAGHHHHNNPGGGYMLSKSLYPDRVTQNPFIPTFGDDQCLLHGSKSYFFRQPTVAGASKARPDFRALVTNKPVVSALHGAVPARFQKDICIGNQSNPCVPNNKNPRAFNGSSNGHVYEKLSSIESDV
pIC50: −log10 of the molar value.

Completed entries (count: 5):
>  <COMPOUND>
Oc1ccc(C(O)CN2C[C@H]3C[C@H](Oc4cccnc4)C[C@H]3C2)cc1F (some centres unmarked)

>  <pIC50>
> 7.00

$$$$
>  <COMPOUND>
Oc1ccc(C(O)CN2C[C@H]3C[C@H](Oc4cccc5cnccc45)C[C@H]3C2)cc1 (some centres unmarked)

>  <pIC50>
6.00 to 7.00

$$$$
>  <COMPOUND>
Oc1ccc(C(O)CN2C[C@H]3C[C@H](Oc4ccc(F)cc4)C[C@H]3C2)cc1 (some centres unmarked)

>  <pIC50>
> 7.00

$$$$
>  <COMPOUND>
COc1cccc(O[C@H]2C[C@@H]3CN(CC(O)c4ccc(O)cc4)C[C@@H]3C2)c1F (some centres unmarked)

>  <pIC50>
> 7.00

$$$$
>  <COMPOUND>
COc1ccc(O[C@@H]2C[C@@H]3CN(CC(=O)c4ccc(O)cn4)C[C@@H]3C2)cc1

>  <pIC50>
5.00 to 6.00

$$$$

List pIC50 for every entry below, keeping the order given.
1. O=C(CN1C[C@H]2C[C@H](Oc3ccccc3Cl)C[C@H]2C1)c1ccc(O)cn1
2. Cc1ccc(O[C@H]2C[C@@H]3CN(CC(O)c4ccc(O)cc4)C[C@@H]3C2)cn1 (some centres unmarked)
3. Cc1ccc(O[C@H]2C[C@@H]3CN(CC(=O)c4ccc(O)cc4)C[C@@H]3C2)cn1

Ans.
1. 5.00 to 6.00
2. 6.00 to 7.00
3. > 7.00

###

Provide the recorded log10(IC50) for the entries that follow.
biological target: HEK293 cells expressing NR1/NR2B (Homo sapiens (Human), UniProt Q13224); assay: NR2B NAM Assay (FDSS Ca2+ influx cell assay); format: cell-based; details: Ca2+ influx inhibition relative to MK801; 3 μM glutamate, 3 μM glycine, 1 mM Ca2+; read-out: NR2B NAM IC50
Scale: log10; quantity: IC50; unit before log: nM

Look at each compound and report its log10(IC50).
1. N#Cc1ccc(O[C@@H]2C[C@@H]3CN(CC(O)c4ccc(O)cn4)C[C@@H]3C2)cc1 (some centres unmarked)
2. COc1ccc(O[C@H]2C[C@@H]3CN(CC(=O)c4ccc(O)c(F)c4)C[C@@H]3C2)cc1
3. OC(CN1C[C@H]2C[C@H](Oc3ccc(F)cc3)C[C@H]2C1)c1cn[nH]c1 (some centres unmarked) [drawing 256]

Ans.
[4.00, 2.01, 3.69]

Kindly give each listed record's log10(IC50).
1. COc1ccc(S[C@H]2C[C@@H]3CN(CC(O)c4ccc(O)cc4)C[C@@H]3C2)cc1 (some centres unmarked)
2. Oc1ccc(C(O)CN2C[C@H]3C[C@H](Oc4cccnc4)C[C@H]3C2)cc1 (some centres unmarked)
3. O=C(CN1C[C@H]2C[C@H](Oc3cc(F)cc(F)c3)C[C@H]2C1)c1ccc(O)cn1
4. O=C(CN1C[C@H]2C[C@H](Oc3cncc(Cl)c3)C[C@H]2C1)c1ccc(O)cc1
5. COc1cccc(O[C@H]2C[C@@H]3CN(CC(O)c4ccc(O)cc4)C[C@@H]3C2)c1F (some centres unmarked)

Ans.
[2.05, 1.98, 4.00, 2.40, 1.89]
